system: NCI-H522 lung; experiment: NCI tumour cell line growth inhibition, 48 h
Where a SMILES comes first, the peptide text is derived from it. The star is where a group is joined. Cbz = O=C(OCc1ccccc1)*
Overview of reported TGI across a group of compounds:
reported_property: TGI

                                   compound  measured_value
0  CC(C)C(C/C=C1\CC(CO)(COC(=O)C(C)(C)C)OC1=O)C(C)C (stereo not drawn)           29 µM
1  CCOC(=O)/C=C(/C(=O)OCC)n1cnc2c(=O)[nH]c(NC(C)=O)nc21        > 100 µM
2  CC(NC(=O)C(NC(=O)OCc1ccccc1)C(C)C)C(=O)NCC(=O)O (stereo not drawn) (Cbz-Val-Ala-Gly-OH; configuration not given here)        > 100 µM
